Recorded recovery by entry
assay: Caco-2 cell monolayer membrane transport assay (Papp and recovery); format: in vitro ADME; conditions: human, Caco-2, Caco-2, A-B, Sample-01; read-out: Recovery rate in mass, Sample-01
All answers are understood in %, so give the number only.

Take a look at these entries with their results.
CO[C@H]1C(=O)[C@]2(C)CC[C@H]3OC[C@@]3(OC(C)=O)[C@H]2[C@H](OC(=O)c2ccccc2)[C@]23OC(=O)O[C@H]2[C@H](OC(=O)[C@H](O)[C@@H](NC(=O)OC(C)(C)C)c2ccccc2)C(C)=C1C3(C)C :: 54.2
COC(=O)O[C@H]1C[C@H]2OC[C@@]2(OC(C)=O)[C@H]2[C@H](OC(=O)c3ccccc3)[C@]34OC(=O)O[C@H]3[C@H](OC(=O)[C@H](O)[C@@H](NC(=O)OC(C)(C)C)c3ccccn3)C(C)=C([C@@H](OC)C(=O)[C@]12C)C4(C)C :: 85.6

Which measured recovery value corresponds to CO[C@H]1C(=O)[C@]2(C)[C@@H](OC)C[C@H]3OC[C@@]3(OC(C)=O)[C@H]2[C@H](OC(=O)c2ccccc2)[C@]23OC(=O)O[C@H]2[C@H](OC(=O)[C@H](O)[C@@H](NC(=O)OC(C)(C)C)c2ccccc2)C(C)=C1C3(C)C ? 48.2

Which measured recovery value corresponds to CO[C@H]1C[C@H]2OC[C@@]2(OC(C)=O)[C@H]2[C@H](OC(=O)c3ccccc3)[C@]34OC(=O)O[C@H]3[C@H](OC(=O)[C@H](O)[C@@H](NC(=O)N(C)C)c3ccccc3)C(C)=C([C@@H](OC(=O)N(C)C)C(=O)[C@]12C)C4(C)C ? 79.7
